biological target: T1, L1 (DV1-GV4), soluble human Vδ1/Vγ4 γδ TCR heterodimer in leucine zipper format (human); assay: SPR (Reichert 4SPR), antibody on Protein A chip, human Vδ1 antigen as analyte; average of two replicates on two instruments
T1 construct: Biotinylated in the DELFIA ranking; also called Antigen L1 (TRDV1/TRGV4); human DV1-GV4; not shown: gamma chain: Vγ4 (TRGV4) domain on a TCR constant region, leucine zipper, histidine tag
T1 sequence (main, as listed by the source): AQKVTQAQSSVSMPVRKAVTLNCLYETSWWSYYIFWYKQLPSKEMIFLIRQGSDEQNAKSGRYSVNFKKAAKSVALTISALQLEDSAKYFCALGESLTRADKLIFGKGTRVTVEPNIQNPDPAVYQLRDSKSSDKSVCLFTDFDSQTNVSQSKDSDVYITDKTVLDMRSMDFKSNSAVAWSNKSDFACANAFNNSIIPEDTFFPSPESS
Entries and their pKd
Worth noting: pKd values are minus log10 of concentrations stated in mol/L.

ADT1-7-3 (antibody, IgG1, V domains shown, IgG1) VH: EVQLVESGGGLVKPGGSLRLSCAASGFTFSDYYMSWIRQAPGKGLEWVSYISSSGSTIYYADSVKGRFTISRDNAKNSLYLQMNSLRAEDTAVYYCARVSYAEAFDIWGQGTLVTVSS VL: DIQMTQSPSSLSASVGDRVTIACRAGQSIGTYLNWYQQKPGKAPKLLIYVASSLQSGVPSRFSGSGSGTEFTLTISSLQPEDFATYYCQQSYSGLDTFGRGTKVEIK
8.42
ADT1-7-61 (antibody, IgG1, V domains shown, IgG1) VH: EVQLVESGGGLVKPGGSLRLSCAASGFTFSDYYMSWIRQAPGKGLEWVSYISSSGSTIYYADSVKGRFTISRDNAKNSLYLQMNSLRAEDTAVYYCARDDYDDAFDIWGQGTLVTVSS VL: DIQMTQSPSSLSASVGDRVTIACRAGQSIGTYLNWYQQKPGKAPKLLIYVASSLQSGVPSRFSGSGSGTEFTLTISSLQPEDFATYYCQQSASELLTFGRGTKVEIK
8.98
ADT1-7-20 (antibody, IgG1, V domains shown, IgG1) VH: EVQLVESGGGLVKPGGSLRLSCAASGFTFSDYYMSWIRQAPGKGLEWVSYISSSGSTIYYADSVKGRFTISRDNAKNSLYLQMNSLRAEDTAVYYCARVDYQEAFDIWGQGTLVTVSS VL: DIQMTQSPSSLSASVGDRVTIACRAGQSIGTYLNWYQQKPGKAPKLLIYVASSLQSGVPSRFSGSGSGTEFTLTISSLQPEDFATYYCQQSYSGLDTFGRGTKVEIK
8.30

Moving on to the next binder.
Query string: For the binder 1245_P01_E07 (antibody, IgG1, V domains shown, also called ADT1-7; parental ADT1-7) VH: QVQLVESGGGLVKPGGSLRLSCAASGFTFSDYYMSWIRQAPGKGLEWVSYISSSGSTIYYADSVKGRFTISRDNAKNSLYLQMNSLRAEDTAVYYCARVDYADAFDIWGQGTLVTVSS VL: DIQMTQSPSSLSASVGDRVTIACRAGQSIGTYLNWYQQKPGKAPKLLIYVASSLQSGVPSRFSGSGSGTEFTLTISSLQPEDFATYYCQQSYSTLLTFGRGTKVEIK , give its reported pKd.
Result string: 7.42

The reported numbers originate from patent US20230028110A1.
